pIC50: −log10 of the molar value.
Each entry below carries its measured pIC50, system: UniProt:P22681.

{"columns": ["molecule", "test.target", "pIC50"],
 "data": [
  ["CO[C@H]1C[C@](O)(C(c2cccc(N3Cc4c(cc(CNC5(C)CCC5)cc4C(F)(F)F)C3=O)c2)c2nncn2C)C1 (single isomer, unassigned) [Compound 367]", "UniProt:P22681", 4.92],
  ["Cn1cnnc1[C@@H](c1cccc(N2Cc3c(cc(CNC4(C)CCC4)cc3C(F)(F)F)C2=O)c1)C1(O)CCC1 (single isomer, unassigned)", "UniProt:P22681", 6.70],
  ["Cn1cnnc1[C@@H](c1cccc(N2Cc3c(cc(CNC4(C)CCC4)cc3C(F)(F)F)C2=O)c1)C1COC1 (single isomer, unassigned)", "UniProt:P22681", 7.74]
]}

* * *

test.target: Cbl-b (Homo sapiens (Human))
Sequence (Q13191 40-426): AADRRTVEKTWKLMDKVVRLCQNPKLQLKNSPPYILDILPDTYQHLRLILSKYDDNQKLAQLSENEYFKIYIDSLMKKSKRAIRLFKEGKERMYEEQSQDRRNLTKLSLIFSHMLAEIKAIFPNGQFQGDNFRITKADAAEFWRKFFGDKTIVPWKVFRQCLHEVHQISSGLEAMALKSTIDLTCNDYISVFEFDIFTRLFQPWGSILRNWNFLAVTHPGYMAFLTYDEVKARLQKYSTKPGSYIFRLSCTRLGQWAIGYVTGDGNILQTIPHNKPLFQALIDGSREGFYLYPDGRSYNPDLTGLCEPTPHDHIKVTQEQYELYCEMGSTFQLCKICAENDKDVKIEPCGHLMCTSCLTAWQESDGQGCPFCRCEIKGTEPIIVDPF
procedure.details: Cbl-b LCK Ub TR-FRET assay (Cbl-b Lck HTRF)
Assay type: biochemical
test.conditions: ratio C-cbl Lck HTRF IC50 / Cbl-b Lck HTRF IC50
readout: (fold-selectivity) Cbl-b and C-Cbl Selectivity

{"columns": ["compound", "readout.value"],
 "data": [
  ["CO[C@H]1C[C@](c2cccc(N3Cc4c(cc(CNC5(C)CC5)cc4C(F)(F)F)C3=O)c2)(c2nncn2C)C1 [Compound 475]", "3.3x"],
  ["Cn1cnnc1[C@H](c1cccc(N2Cc3c(cc(CNC4(C)CCC4)cc3C(F)(F)F)C2=O)c1)[C@@H]1CCS(=O)(=O)C1 (single isomer, unassigned) [Compound 439]", "1.4 x"],
  ["CO[C@H]1C[C@](c2cccc(N3Cc4c(cc(CN[C@@]56CCC[C@@H]5C6)cc4C(F)(F)F)C3=O)c2)(c2nncn2C)C1 [Compound 508]", "3.8x"],
  ["Cn1cnnc1[C@@H](c1cccc(N2Cc3c(cc(CNCC(C)(C)F)cc3C(F)(F)F)C2=O)c1)C1COC1 [Compound 463]", "1.9x"],
  ["CO[C@H]1C[C@](c2cccc(N3Cc4c(cc(CNC5CC6CC6C5)cc4C(F)(F)F)C3=O)c2)(c2nncn2C)C1 (stereo partly drawn) [Compound 498]", "3.6x"],
  ["CO[C@H]1C[C@](c2cccc(N3Cc4c(cc(CN[C@H]5[C@@H]6COC[C@@H]65)cc4C(F)(F)F)C3=O)c2)(c2nncn2C)C1 [Compound 492]", "6.2x"],
  ["CC1(NCc2cc3c(c(C(F)(F)F)c2)CN(c2cccc([C@H](C4COC4)n4ccnn4)c2)C3=O)CCC1 (single isomer, unassigned) [Compound 437]", "1.0x"],
  ["Cn1cnnc1[C@@H](c1cccc(N2Cc3c(cc([C@@H](NC4(C)CCC4)C4CCC4)cc3C(F)(F)F)C2=O)c1)C1COC1 (single isomer, unassigned) [Compound 433]", "4.7x"],
  ["CC(C)CNCc1cc2c(c(C(F)(F)F)c1)CN(c1cccc([C@H](c3nncn3C)C3COC3)c1)C2=O (single isomer, unassigned) [Compound 464]", "1.1x"],
  ["Cn1cnnc1[C@@H](c1cccc(N2Cc3c(cc(CNC4(C)CCC4)cc3C(F)(F)F)C2=O)c1)C1(O)CCC1 (single isomer, unassigned) [Compound 429]", "5.1x"],
  ["CO[C@H]1C[C@](c2cccc(N3Cc4c(cc(CNCCC5CCC5(F)F)cc4C(F)(F)F)C3=O)c2)(c2nncn2C)C1 (stereo partly drawn) [Compound 499]", "5.0x"],
  ["Cn1cnnc1[C@H](c1cc(Cl)cc(N2Cc3c(cc(CNC4(C)CCC4)cc3C(F)(F)F)C2=O)c1)C1COC1 (single isomer, unassigned) [Compound 409]", "1.1x"]
]}

* * *

test.target: UniProt:Q13191
procedure.details: Cbl-b LCK Ub TR-FRET assay (Cbl-b Lck HTRF)
Type: biochemical
test.conditions: Cbl-b LCK Ub TR-FRET
IC50 listing for selected molecules.

{"columns": ["molecule", "IC50"],
 "data": [
  ["Cn1cnnc1[C@]1(c2cccc(N3Cc4c(cc(CNC5(C)CCC5)cc4C(F)(F)F)C3=O)c2)C[C@](F)(CF)C1", "15 nM"],
  ["Cn1cnnc1[C@H](c1cccc(N2Cc3c(cc(CNC4(C)CCC4)cc3C(F)(F)F)C2=O)c1)C1CCCC1", "22 nM"],
  ["CO[C@H]1C[C@@](c2cc(OC3COC3)cc(N3Cc4c(cc(CNC5(C)CCC5)cc4C(F)(F)F)C3=O)c2)(c2nncn2C)C1", "130 nM"],
  ["Cn1cnnc1[C@]1(c2cc(OC3CCCC3)cc(N3Cc4c(cc(CNC5(C)CCC5)cc4C(F)(F)F)C3=O)c2)C[C@H](C)C1", "35 nM"],
  ["CC(=O)C1CC([C@@H](c2cccc(N3Cc4c(cc(CNC5(C)CCC5)cc4C(F)(F)F)C3=O)c2)c2nncn2C)C1 (single isomer, unassigned) [Compound 384]", "24 nM"],
  ["Cn1cnnc1[C@H](c1cccc(N2Cc3c(cc(CNC4(C)CCC4)cc3C(F)(F)F)C2=O)c1)[C@H]1CCOC1", "72 nM"],
  ["CCOc1cc([C@]2(c3nncn3C)C[C@@H](OC)C2)cc(N2Cc3c(cc(CNC4(C)CCC4)cc3C(F)(F)F)C2=O)n1", "6.4 nM"],
  ["Cn1cnnc1[C@]1(c2cccc(N3Cc4c(cc(CNC5(C)CCC5)cc4C(F)(F)F)C3=O)c2)C[C@@H](OCF)C1", "8.3 nM"],
  ["COc1cc(N2Cc3c(cc(CNC4(C)CCC4)cc3C(F)(F)F)C2=O)cc([C@]2(c3nncn3C)C[C@H](OC)C2)c1", "12 nM"],
  ["COC1CC([C@H](c2cccc(N3Cc4c(cc(CNC5(C)CCC5)cc4C(F)(F)F)C3=O)c2)c2nncn2C)C1 (single isomer, unassigned) [Compound 131]", "740 nM"],
  ["CO[C@H]1C[C@](c2cc(OC3COC3)cc(N3Cc4c(cc(CNC5(C)CCC5)cc4C(F)(F)F)C3=O)c2)(c2nncn2C)C1", "56 nM"],
  ["CO[C@@](c1cccc(N2Cc3c(cc(CNC4(C)CCC4)cc3C(F)(F)F)C2=O)c1)(c1nncn1C)C1CCC1 (single isomer, unassigned)", "≥ 20000 nM"],
  ["Cn1cnnc1[C@@H](c1cccc(N2Cc3c(cc(CNC4(C)CCC4)cc3C(F)(F)F)C2=O)c1)C1CCS(=O)(=O)CC1", "2500 nM"],
  ["Cn1ccnc1[C@@H](c1cccc(N2Cc3c(cc(CNC4(C)CCC4)cc3C(F)(F)F)C2=O)c1)C1COC1 (single isomer, unassigned)", "69 nM"],
  ["Cn1cnnc1[C@H](c1cccc(N2Cc3c(cc(CNC4(C)CCC4)cc3C(F)(F)F)C2=O)c1)C1CC(OC(F)(F)F)C1 (single isomer, unassigned)", "100 nM"],
  ["Cc1cnnn1[C@H](c1cccc(N2Cc3c(cc(CNC4(C)CCC4)cc3C(F)(F)F)C2=O)c1)C1COC1 (single isomer, unassigned)", "≥ 20000 nM"],
  ["C[C@@H](NC1CCC1)c1cc2c(c(C(F)(F)F)c1)CN(c1cccc(C3(c4nncn4C)CC(F)(F)C3)c1)C2=O (single isomer, unassigned)", "11 nM"],
  ["Cn1cnnc1[C@H](c1cccc(N2Cc3c(cc(CNC4(C)CCC4)cc3C(F)(F)F)C2=O)c1)C1CCOCC1.O=CO (single isomer, unassigned) [Compound 291, formate]", "11 nM"],
  ["Cn1cnnc1C1(c2cccc(N3Cc4c(cc(CNC5(C)CCC5)cc4C(F)(F)F)C3=O)c2)CS(=O)(=O)C1", "100 nM"],
  ["Cc1cnnn1[C@@H](c1cccc(N2Cc3c(cc(CNC4(C)CCC4)cc3C(F)(F)F)C2=O)c1)C1COC1 (single isomer, unassigned)", "37 nM"],
  ["C=CCNc1cc(N2Cc3c(cc(CNC4(C)CCC4)cc3C(F)(F)F)C2=O)cc([C@]2(c3nncn3C)C[C@H](OC)C2)c1", "13 nM"],
  ["CS[C@H]1C[C@](c2cccc(N3Cc4c(cc(CNC5(C)CCC5)cc4C(F)(F)F)C3=O)c2)(c2nncn2C)C1", "5 nM"],
  ["COC1CC([C@H](c2cccc(N3Cc4c(cc(CNC5(C)CCC5)cc4C(F)(F)F)C3=O)c2)c2nncn2C)C1 (single isomer, unassigned) [Compound 132]", "600 nM"],
  ["CC(=O)N(C)[C@@H](c1cccc(N2Cc3c(cc(CNC4(C)CCC4)cc3C(F)(F)F)C2=O)c1)c1nncn1C (single isomer, unassigned)", "≥ 20000 nM"]
]}

* * *

test.target: Human Cbl-b (residues 40-426) (Homo sapiens (Human), UniProt Q13191)
Sequence (Q13191 40-426): as above
procedure.details: Cbl-b SPR assay
Type: binding
test.conditions: C-cbl SPR Kd vs Cbl-b SPR Kd
Measured Fold of selectivity accompanies every entry in the list below.

{"columns": ["compound", "unit.info", "Fold of selectivity"],
 "data": [
  ["Cn1cnnc1[C@@H](c1cccc(N2Cc3c(cc([C@H](NC4(C)CCC4)C4CC4)cc3C(F)(F)F)C2=O)c1)C1COC1 (single isomer, unassigned) [Compound 431]", "×", 3.1],
  ["Cn1cnnc1C1(c2cccc(N3Cc4c(cc(CNC5(C)CCC5)cc4C(F)F)C3=O)c2)CC2(COC2)C1 [Compound 197]", "×", 9.2],
  ["CO[C@H]1C[C@@](c2cc(OC3CCCC3)cc(N3Cc4c(cc(CNC5(C)CCC5)cc4C(F)(F)F)C3=O)c2)(c2nncn2C)C1 [Compound 208]", "×", 6.0],
  ["Cn1cnnc1C1(c2cccc(N3Cc4c(cc(CNC5(C)CCC5)cc4C(F)(F)F)C3=O)c2)COC1 [Compound 58]", "×", 3.1],
  ["CO[C@H]1C[C@@](c2cc(N[C@@H](C)CC#N)cc(N3Cc4c(cc(CNC5(C)CCC5)cc4C(F)(F)F)C3=O)c2)(c2nncn2C)C1 (single isomer, unassigned) [Compound 233]", "×", 7.1],
  ["COC[C@H]1C[C@](c2cccc(N3Cc4c(cc(CNC5(C)CCC5)cc4C(F)(F)F)C3=O)c2)(c2nncn2C)C1 [Compound 104]", "×", 9.1],
  ["Cn1cnnc1[C@H](c1cccc(N2Cc3c(cc(CNC4(C)CCC4)cc3C(F)(F)F)C2=O)c1)C1CCCC1 [Compound 257]", "×", 5.7],
  ["CCC(NCc1cc2c(c(C(F)(F)F)c1)CN(c1cccc([C@]3(c4nncn4C)C[C@H](OC)C3)c1)C2=O)C(=O)OC (stereo partly shown) [Compound 425]", "×", 11],
  ["Cn1cnnc1C1(c2cccc(N3Cc4c(cc(C(N)=O)cc4C(F)(F)F)C3=O)c2)CCC1 [Compound 327]", "×", 4.7],
  ["COC1CC([C@H](c2cccc(N3Cc4c(cc(CNC5(C)CCC5)cc4C(F)(F)F)C3=O)c2)c2nncn2C)C1 (single isomer, unassigned) [Compound 131]", "×", 16],
  ["Cn1cnnc1C1(c2cc(NC3CCCC3)nc(N3Cc4c(cc(CNC5(C)CCC5)cc4C(F)(F)F)C3=O)c2)CC2(COC2)C1 [Compound 188]", "×", 22],
  ["CO[C@H]1C[C@](c2cccc(N3Cc4c(cc(CNC56CC(C5)C6)cc4C(F)(F)F)C3=O)c2)(c2nncn2C)C1 [Compound 485]", "×", 14],
  ["Cn1cnnc1[C@]1(c2cc(NC3CCCC3)nc(N3Cc4c(cc(CNC5(C)CCC5)cc4C(F)(F)F)C3=O)c2)C[C@H](C)C1 [Compound 53]", "×", 9.2]
]}
